# System: M14 melanoma
# EXPERIMENTAL PROTOCOL: NCI tumour cell line growth inhibition, 48 h
REPORTED ENDPOINT: GI50

COMPOUND: O=C(Nc1cccc(C(F)(F)F)c1)Nc1ccc(OCc2nnc(-c3ccccc3)o2)c(F)c1
GI50: 7.18 µM

COMPOUND: CCn1c(SC)nnc1-c1cc2c([nH]c3ccccc32)c(-c2cccc(O)c2)n1
GI50: 1.48 µM

COMPOUND: O=C(c1ccccc1)c1ccc(N2C(=O)C3C4c5ccccc5C(/C=C/C(=O)c5ccccn5)(c5ccccc54)C3C2=O)cc1 (stereo not given)
GI50: 3.4 µM

I'm curious: which GI50 was measured for CCC(=C(c1ccc(OCCN(CC)CC)cc1)c1ccc(OCCN(CC)CC)cc1)c1ccc(Cl)cc1 tested on M14 melanoma? 0.585 µM

Checklist item: GI50 tested on M14 melanoma, entry C/C(=N\NC(=O)c1ccncc1)c1ccccc1O , value? 4.95 µM

====

# System: KM12 colon
# EXPERIMENTAL PROTOCOL: NCI tumour cell line growth inhibition, 48 h
REPORTED ENDPOINT: TGI

COMPOUND: CCOC(=O)c1c(/C=N\Nc2ccccc2)nc2ccccc2c1-c1ccccc1
TGI: > 100 µM

COMPOUND: Cc1ccc(S(=O)(=O)NCc2cccc([N+](=O)[O-])c2)cc1
TGI: > 100 µM

COMPOUND: CN1OC(CO)CC12C1CC3CC(C1)CC2C3 (stereo not drawn)
TGI: > 100 µM

# evaluate next
So what's the measured TGI for this one? O=C1COc2cc3c(cc2N1)SCC(=O)N3 > 100 µM

====

# Tested on: NCI-H23 lung
# EXPERIMENTAL PROTOCOL: NCI tumour cell line growth inhibition, 48 h
REPORTED ENDPOINT: TGI

Give the measured TGI of Nc1c(/C=C/c2cc3cc(C4=NCCN4)ccc3o2)[nH]c2cc(C3=NCCN3)ccc12 . > 100 µM

Which TGI is reported for this compound? CC(C)S1=C2C(=O)CC(C)(C)CC2=Nc2ccccc21 (stereo unspecified) > 100 µM

Look at this compound and give its reported TGI. O=C1Cc2c([nH]c3c(Br)cccc23)-c2ccccc2N1 > 100 µM

====

# Test system: UO-31 renal
# EXPERIMENTAL PROTOCOL: NCI tumour cell line growth inhibition, 48 h; in the data active means GI50 below about 0.43 µM; inactive means the rest
Use one of these outcomes when replying: 1 (active), 0 (inactive)

SMILES INPUT: O=C1COc2c(CCNCCN(C(=O)CCNCCc3ccc(Cl)c(Cl)c3)C3CCCCC3)ccc(O)c2N1
CLASS: 0

Just curious, what result did COc1cc2c(cc1OCCCN1CCN(CCCn3c4ccccc4c4ccccc43)CC1)N=C[C@@H]1CCCN1C2=O get here? 1

Which outcome did this test record for the compound OCCn1c(-c2ccncc2)c(-c2ccc(F)cc2)c2ncccc21 ? 0

====

# System: MCF7 breast
# EXPERIMENTAL PROTOCOL: NCI tumour cell line growth inhibition, 48 h; in the data active means GI50 below about 0.43 µM; inactive means the rest
Select the correct class. Options are active, inactive and nothing else.

The examples below pair each entry with its known result.
MOLECULE: COc1cc2c(cc1OCCCN1CCN(CCCn3c4ccccc4c4ccccc43)CC1)N=C[C@@H]1CCCN1C2=O
CLASS: active
//
MOLECULE: CCNc1nc(-c2ccc(Cl)c(OC)c2)c(-c2ccnc(NCCNS(=O)(=O)c3ccc(Cl)cc3)n2)s1
CLASS: inactive
//
MOLECULE: Brc1ccc2c(c1)-c1ccccc1C1=NCCN12
CLASS: inactive
//
MOLECULE: Cn1c(=O)c(-c2c(Cl)cccc2Cl)cc2cnc(Nc3ccc(N4CCOCC4)cc3)nc21
CLASS: inactive
//
MOLECULE: Oc1ccc(CCNc2nc3ccccc3c3[nH]c4ccccc4c23)cc1
CLASS: inactive

GET /call?item= Cc1cccc(Cc2cnc(NC(=O)CCCOc3ccc(Cl)cc3)s2)c1 returns the recorded outcome of this test. inactive

Tell me the assay call for C/C(=N\NC(=O)c1ccncc1)c1ccccc1O please. inactive

Outcome logged for CN1CCN(Cc2ccc(NC(=O)c3cncc(C#Cc4cnc5cccnn45)c3)cc2C(F)(F)F)CC1 in this assay: inactive

Data provenance is PubChem BioAssay (NCI).
